- TARGET_OR_TEST_SYSTEM: HLA-A*0301 (human)
- TEST_NAME: iTopia net score

[
  {
    "BINDER": "AQLSLERQK [cdr2 207-215 AQLSLERQK]",
    "iScore": 0.075
  },
  {
    "BINDER": "LQLAAELGK [cdr2 28-36 LQLAAELGK]",
    "iScore": 0.086
  },
  {
    "BINDER": "QLGATGAYR [cdr2 236-244 QLGATGAYR]",
    "iScore": 0.122
  },
  {
    "BINDER": "RQMNEQHAK [cdr2 74-82 RQMNEQHAK]",
    "iScore": 0.147
  },
  {
    "BINDER": "SLAGSDIVK [cdr2 317-325 SLAGSDIVK]",
    "iScore": 0.14
  },
  {
    "BINDER": "KEIFSCIKK [cdr2 427-435 KEIFSCIKK]",
    "iScore": 0.231
  },
  {
    "BINDER": "VQTSRAAAK [cdr2 379-387 VQTSRAAAK]",
    "iScore": 0.279
  },
  {
    "BINDER": "TQYSALKVK [cdr2 351-359 TQYSALKVK]",
    "iScore": 0.27
  },
  {
    "BINDER": "ESHRKPLKR [cdr2 300-308 ESHRKPLKR]",
    "iScore": 0.147
  },
  {
    "BINDER": "LQAQLSLER [cdr2 205-213 LQAQLSLER]",
    "iScore": 0.087
  },
  {
    "BINDER": "CIRRAKAVK [cdr2 331-339 CIRRAKAVK]",
    "iScore": 0.436
  }
]
